What viability, T/C was measured for each of the following?
Tested on: 266295-075-R-J1-PDC spheroid viability
Experiment: Anticancer human tumor 266295-075-R-J1-PDC patient-derived head and neck squamous carcinoma cell line growth inhibition [POLQ]
Details: second compound 0.1 µM; first compound 0.316 µM; active compounds read low; spheroids with HUVEC and MSC
Give the value, in units of %, as a plain number.

Query :: Read off the recorded viability, T/C for CCc1cc2c(N3CCc4c(cc(Cn5ccnc5)cc4-c4cn(C)nc4C(F)(F)F)C3=O)ccnc2c(OC)n1 + Nc1ccc(C#CCN(C(=O)Cc2ncc(C(F)(F)F)cc2C(F)(F)F)c2ccc(F)cc2)nn1
Result :: 91.7

Query :: Read off the recorded viability, T/C for COc1cccc2c1C(=O)c1c(O)c3c(c(O)c1C2=O)CC(O)(C(=O)CO)CC3OC1CC(N)C(O)C(C)O1 (stereo not drawn) + Nc1ccc(C#CCN(C(=O)Cc2ncc(C(F)(F)F)cc2C(F)(F)F)c2ccc(F)cc2)nn1
Result :: 89.2

Query :: Read off the recorded viability, T/C for CNCc1ccc(-c2[nH]c3cc(F)cc4c3c2CCNC4=O)cc1 + Cc1cccc(N(C)C(=O)C2C(O)CCN2c2nc(C)cc(C(F)(F)F)c2C#N)c1
Result :: 88.2

====

What viability, T/C was measured for each of the following?
Test system: 266295-075-R-J1-PDC spheroid viability
Assay: Anticancer human tumor 266295-075-R-J1-PDC cell line growth inhibition [POLQ];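 further: spheroids exposed to compounds for seven days before readout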
Settings: second compound 0.0316 µM; first compound 0.316 µM; active compounds read low; spheroids with HUVEC and MSC
Method: Multicellular complex tumor spheroid response to Polymerase (POL) inhibitors (novobiocin, ART-558, RP6685) in combination with a variety of drugs and investigational agents in selected tumor cell lines The POL inhibitors (novobiocin, ART-558, and RP6685) were evaluated both individually and in combination with standard of care and investigational anticancer small molecules within a complex spheroid model of solid tumors. . […]
Give the value, in units of %, as a plain number.

Query :: Read off the recorded viability, T/C for Nc1ccn(C2OC(CO)C(O)C2(F)F)c(=O)n1 (stereo not drawn) + COC1C(OC(N)=O)C(O)C(Oc2ccc3c(O)c(NC(=O)c4ccc(O)c(CC=C(C)C)c4)c(=O)oc3c2C)OC1(C)C
Result :: 77.3

Query :: Read off the recorded viability, T/C for CCc1cc2c(N3CCc4c(cc(Cn5ccnc5)cc4-c4cn(C)nc4C(F)(F)F)C3=O)ccnc2c(OC)n1 + Cc1cccc(N(C)C(=O)C2C(O)CCN2c2nc(C)cc(C(F)(F)F)c2C#N)c1
Result :: 78.6

Query :: Read off the recorded viability, T/C for CC1COCCN1c1cc(C2(O)CC3CCC(C2)O3)c2cnn(-c3ccn[nH]3)c2n1 (stereo not drawn) + COC1C(OC(N)=O)C(O)C(Oc2ccc3c(O)c(NC(=O)c4ccc(O)c(CC=C(C)C)c4)c(=O)oc3c2C)OC1(C)C
Result :: 65.6

====

Test system: 266295-075-R-J1-PDC spheroid viability
Assay: Anticancer human tumor 266295-075-R-J1-PDC cell line growth inhibition [POLQ];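 further: spheroids exposed to compounds for seven days before readout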
Conditions: second compound 0.1 µM; first compound 0.316 µM; active compounds read low; spheroids with HUVEC and MSC
What viability, T/C was measured for each of the following?
Give the value, in units of %, as a plain number.

Query :: Determine reported viability, T/C for O=c1[nH]cc(F)c(=O)[nH]1 + Cc1cccc(N(C)C(=O)C2C(O)CCN2c2nc(C)cc(C(F)(F)F)c2C#N)c1 ; test system: 266295-075-R-J1-PDC spheroid viability.
Result :: 84.3

Query :: Determine reported viability, T/C for COc1cc(C2c3cc4c(cc3C(OC3OC5COC(C)OC5C(O)C3O)C3COC(=O)C23)OCO4)cc(OC)c1O (stereo not given) + COC1C(OC(N)=O)C(O)C(Oc2ccc3c(O)c(NC(=O)c4ccc(O)c(CC=C(C)C)c4)c(=O)oc3c2C)OC1(C)C ; test system: 266295-075-R-J1-PDC spheroid viability.
Result :: 110

Query :: Determine reported viability, T/C for C#Cc1c(F)ccc2cc(O)cc(-c3ncc4c(N5CC6CCC(C5)N6)nc(OCC56CCCN5CC(F)C6)nc4c3F)c12 (stereo not given) + Cc1cccc(N(C)C(=O)C2C(O)CCN2c2nc(C)cc(C(F)(F)F)c2C#N)c1 ; test system: 266295-075-R-J1-PDC spheroid viability.
Result :: 70

Query :: Determine reported viability, T/C for C=CC(=O)N1CCN(c2nc(=O)n(-c3c(C)ccnc3C(C)C)c3nc(-c4c(O)cccc4F)c(F)cc23)C(C)C1 (stereo not given) + Nc1ccc(C#CCN(C(=O)Cc2ncc(C(F)(F)F)cc2C(F)(F)F)c2ccc(F)cc2)nn1 ; test system: 266295-075-R-J1-PDC spheroid viability.
Result :: 100

Query :: Determine reported viability, T/C for COc1ccc([C@@H](O)c2cc(-c3ncnc4cc(N5CCOCC5)ccc34)c(F)cc2Cl)nn1 + Cc1cccc(N(C)C(=O)C2C(O)CCN2c2nc(C)cc(C(F)(F)F)c2C#N)c1 ; test system: 266295-075-R-J1-PDC spheroid viability.
Result :: 81.5

Query :: Determine reported viability, T/C for CCc1cc2c(N3CCc4c(cc(Cn5ccnc5)cc4-c4cn(C)nc4C(F)(F)F)C3=O)ccnc2c(OC)n1 + Cc1cccc(N(C)C(=O)C2C(O)CCN2c2nc(C)cc(C(F)(F)F)c2C#N)c1 ; test system: 266295-075-R-J1-PDC spheroid viability.
Result :: 105

Query :: Determine reported viability, T/C for CCc1c2c(nc3ccc(O)cc13)-c1cc3c(c(=O)n1C2)COC(=O)[C@]3(O)CC + Nc1ccc(C#CCN(C(=O)Cc2ncc(C(F)(F)F)cc2C(F)(F)F)c2ccc(F)cc2)nn1 ; test system: 266295-075-R-J1-PDC spheroid viability.
Result :: 96.2

Query :: Determine reported viability, T/C for COc1ccc([C@@H](O)c2cc(-c3ncnc4cc(N5CCOCC5)ccc34)c(F)cc2Cl)nn1 + Nc1ccc(C#CCN(C(=O)Cc2ncc(C(F)(F)F)cc2C(F)(F)F)c2ccc(F)cc2)nn1 ; test system: 266295-075-R-J1-PDC spheroid viability.
Result :: 71.6

Query :: Determine reported viability, T/C for CC1COCCN1c1cc(C2(S(C)(=N)=O)CC2)nc(-c2ccnc3[nH]ccc23)n1 (stereo not given) + COC1C(OC(N)=O)C(O)C(Oc2ccc3c(O)c(NC(=O)c4ccc(O)c(CC=C(C)C)c4)c(=O)oc3c2C)OC1(C)C ; test system: 266295-075-R-J1-PDC spheroid viability.
Result :: 89.6

Query :: Determine reported viability, T/C for CC1COCCN1c1cc(C2(O)CC3CCC(C2)O3)c2cnn(-c3ccn[nH]3)c2n1 (stereo not given) + Nc1ccc(C#CCN(C(=O)Cc2ncc(C(F)(F)F)cc2C(F)(F)F)c2ccc(F)cc2)nn1 ; test system: 266295-075-R-J1-PDC spheroid viability.
Result :: 53.5

====

Test system: 266295-075-R-J1-PDC spheroid viability
Assay: Anticancer human tumor 266295-075-R-J1-PDC cell line growth inhibition [POLQ];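 further: spheroids exposed to compounds for seven days before readout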
Details: second compound 1 µM; first compound 0.316 µM; active compounds read low; spheroids with HUVEC and MSC
recorded.metric: viability, T/C (%)
Give the value, in units of %, as a plain number.

Query :: Determine reported viability, T/C for CNCc1ccc(-c2[nH]c3cc(F)cc4c3c2CCNC4=O)cc1 + Nc1ccc(C#CCN(C(=O)Cc2ncc(C(F)(F)F)cc2C(F)(F)F)c2ccc(F)cc2)nn1 ; test system: 266295-075-R-J1-PDC spheroid viability.
Result :: 123

Query :: Determine reported viability, T/C for COc1cc(C2c3cc4c(cc3C(OC3OC5COC(C)OC5C(O)C3O)C3COC(=O)C23)OCO4)cc(OC)c1O (centres undefined) + Cc1cccc(N(C)C(=O)C2C(O)CCN2c2nc(C)cc(C(F)(F)F)c2C#N)c1 ; test system: 266295-075-R-J1-PDC spheroid viability.
Result :: 82

Query :: Determine reported viability, T/C for CCc1cc2c(N3CCc4c(cc(Cn5ccnc5)cc4-c4cn(C)nc4C(F)(F)F)C3=O)ccnc2c(OC)n1 + Cc1cccc(N(C)C(=O)C2C(O)CCN2c2nc(C)cc(C(F)(F)F)c2C#N)c1 ; test system: 266295-075-R-J1-PDC spheroid viability.
Result :: 90.6

Query :: Determine reported viability, T/C for CCCS(=O)(=O)Nc1ccc(F)c(C(=O)c2c[nH]c3ncc(-c4ccc(Cl)cc4)cc23)c1F + Nc1ccc(C#CCN(C(=O)Cc2ncc(C(F)(F)F)cc2C(F)(F)F)c2ccc(F)cc2)nn1 ; test system: 266295-075-R-J1-PDC spheroid viability.
Result :: 115

Query :: Determine reported viability, T/C for COc1cc2cc(C(=O)CCC(=O)O)sc2cc1OC + COC1C(OC(N)=O)C(O)C(Oc2ccc3c(O)c(NC(=O)c4ccc(O)c(CC=C(C)C)c4)c(=O)oc3c2C)OC1(C)C ; test system: 266295-075-R-J1-PDC spheroid viability.
Result :: 97.8

Query :: Determine reported viability, T/C for CC1COCCN1c1cc(C2(O)CC3CCC(C2)O3)c2cnn(-c3ccn[nH]3)c2n1 (centres undefined) + COC1C(OC(N)=O)C(O)C(Oc2ccc3c(O)c(NC(=O)c4ccc(O)c(CC=C(C)C)c4)c(=O)oc3c2C)OC1(C)C ; test system: 266295-075-R-J1-PDC spheroid viability.
Result :: 75.3

Query :: Determine reported viability, T/C for CCc1c2c(nc3ccc(O)cc13)-c1cc3c(c(=O)n1C2)COC(=O)[C@]3(O)CC + COC1C(OC(N)=O)C(O)C(Oc2ccc3c(O)c(NC(=O)c4ccc(O)c(CC=C(C)C)c4)c(=O)oc3c2C)OC1(C)C ; test system: 266295-075-R-J1-PDC spheroid viability.
Result :: 99.5

Query :: Determine reported viability, T/C for COc1cc(C2c3cc4c(cc3C(OC3OC5COC(C)OC5C(O)C3O)C3COC(=O)C23)OCO4)cc(OC)c1O (centres undefined) + Nc1ccc(C#CCN(C(=O)Cc2ncc(C(F)(F)F)cc2C(F)(F)F)c2ccc(F)cc2)nn1 ; test system: 266295-075-R-J1-PDC spheroid viability.
Result :: 92.3

Query :: Determine reported viability, T/C for CCc1cc2c(N3CCc4c(cc(Cn5ccnc5)cc4-c4cn(C)nc4C(F)(F)F)C3=O)ccnc2c(OC)n1 + COC1C(OC(N)=O)C(O)C(Oc2ccc3c(O)c(NC(=O)c4ccc(O)c(CC=C(C)C)c4)c(=O)oc3c2C)OC1(C)C ; test system: 266295-075-R-J1-PDC spheroid viability.
Result :: 94
